Recorded IC50 values for a group of compounds are listed next.
System: L929 cells (non-tumoral mouse fibroblast)
measurement-protocol: MTT cytotoxicity assay, L929 control line
Format: cell-based
condition-context: 72 h exposure, read-out: Cytotoxic activity IC50 (95% CI) L929

>  <compound>
O=C1C(=O)c2ccccc2C2=C1CC(Cn1cc(CNC3=CC(=O)c4cc5ccccc5cc4C3=O)nn1)O2 (centres unmarked) [Compound 20e]

>  <unit-abbreviation>
µM

>  <IC50>
15.9

$$$$
>  <compound>
C#CCNC1=CC(=O)c2c(O)cccc2C1=O [Compound 18b]

>  <unit-abbreviation>
µM

>  <IC50>
23.9

$$$$
